// data source = ChEMBL document CHEMBL2203078

Each entry below carries its recorded efflux ratio.
molecular target: MDR1a (P-gp, ABCB1) (Rattus norvegicus); assay: in vitro; details: not told
Sequence (P43245 whole entry): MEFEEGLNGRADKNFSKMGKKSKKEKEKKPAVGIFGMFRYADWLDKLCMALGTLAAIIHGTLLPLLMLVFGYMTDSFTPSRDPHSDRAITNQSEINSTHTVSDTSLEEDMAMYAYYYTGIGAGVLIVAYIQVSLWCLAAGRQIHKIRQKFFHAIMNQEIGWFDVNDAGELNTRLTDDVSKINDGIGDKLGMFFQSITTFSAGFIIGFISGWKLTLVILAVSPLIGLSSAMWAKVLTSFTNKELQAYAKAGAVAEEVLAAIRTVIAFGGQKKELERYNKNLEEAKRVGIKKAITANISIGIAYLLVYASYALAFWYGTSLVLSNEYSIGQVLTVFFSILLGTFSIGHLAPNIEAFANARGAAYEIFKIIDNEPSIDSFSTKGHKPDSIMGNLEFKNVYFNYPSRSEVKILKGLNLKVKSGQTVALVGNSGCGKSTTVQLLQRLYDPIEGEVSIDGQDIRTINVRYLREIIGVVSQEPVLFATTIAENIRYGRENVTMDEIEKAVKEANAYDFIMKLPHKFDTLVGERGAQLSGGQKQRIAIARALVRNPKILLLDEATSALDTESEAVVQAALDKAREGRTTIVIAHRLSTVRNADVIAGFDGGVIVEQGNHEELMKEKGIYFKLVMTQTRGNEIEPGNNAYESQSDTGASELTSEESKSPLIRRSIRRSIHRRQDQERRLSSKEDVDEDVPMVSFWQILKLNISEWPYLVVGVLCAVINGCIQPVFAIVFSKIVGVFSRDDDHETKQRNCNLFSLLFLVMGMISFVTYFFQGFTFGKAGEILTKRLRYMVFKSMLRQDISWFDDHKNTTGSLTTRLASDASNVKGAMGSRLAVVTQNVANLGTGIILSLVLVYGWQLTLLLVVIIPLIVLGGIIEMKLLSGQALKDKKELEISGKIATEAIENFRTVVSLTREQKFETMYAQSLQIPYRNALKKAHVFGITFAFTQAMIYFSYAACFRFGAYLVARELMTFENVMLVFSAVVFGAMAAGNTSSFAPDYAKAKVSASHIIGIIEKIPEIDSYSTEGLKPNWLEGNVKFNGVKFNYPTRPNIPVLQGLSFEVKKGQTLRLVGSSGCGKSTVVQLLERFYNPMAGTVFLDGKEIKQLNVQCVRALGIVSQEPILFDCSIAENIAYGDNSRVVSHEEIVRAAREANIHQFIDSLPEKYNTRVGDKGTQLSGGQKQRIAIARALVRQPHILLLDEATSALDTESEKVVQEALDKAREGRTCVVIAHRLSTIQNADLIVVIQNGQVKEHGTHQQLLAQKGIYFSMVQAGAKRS
Description: Efflux ratio assessed as rat MDR1a-mediated directional transport ratio from basolateral to apical over apical to basolateral by cell based assay

{"Molecule": "N#CC1(c2ccccn2)CCN(Cc2cc(C(=O)N[C@H]3CCCC[C@@H]3F)c(=O)n3ccccc23)CC1", "efflux ratio": 3.4}
{"Molecule": "N#Cc1ccc(N2CCN(Cc3cc(C(=O)N[C@H]4CCCC[C@@H]4O)c(=O)n4ccccc34)CC2)cc1", "efflux ratio": 4.7}
{"Molecule": "N#CC1(c2ccccn2)CCN(Cc2cc(C(=O)NC3CCCCC3(F)F)c(=O)n3ccccc23)CC1 (centres undefined)", "efflux ratio": 3.4}
{"Molecule": "N#CC1(c2ccccn2)CCN(Cc2cc(C(=O)NC3CCCCC3)c(=O)n3ccccc23)CC1", "efflux ratio": 2}

====

Papp overview
experiment: Passive permeability across MDCK cells; format: ADME, cell-based, Canis lupus familiaris; details: dog

{"Molecule": "C[C@@]1(NC(=O)c2cc(CN3CCC(C#N)(c4ccccn4)CC3)c3ccccn3c2=O)CCCC[C@H]1O", "Papp": "28 ×10⁻⁶ cm/s"}
{"Molecule": "N#CC1(c2ccccn2)CCN(Cc2cc(C(=O)NC3CCCCC3(F)F)c(=O)n3ccccc23)CC1 (configuration not stated)", "Papp": "29 ×10⁻⁶ cm/s"}
{"Molecule": "N#CC1(c2ccccn2)CCN(Cc2cc(C(=O)NC3CCCCC3)c(=O)n3ccccc23)CC1", "Papp": "28 ×10⁻⁶ cm/s"}
{"Molecule": "N#CC1(c2ccccn2)CCN(Cc2cc(C(=O)N[C@H]3CCCC[C@@H]3F)c(=O)n3ccccc23)CC1", "Papp": "26 ×10⁻⁶ cm/s"}
{"Molecule": "O=C(N[C@H]1CCCC[C@@H]1O)c1cc(CN2CCN(c3cc4ccccc4cn3)CC2)c2ccccn2c1=O", "Papp": "29 ×10⁻⁶ cm/s"}
{"Molecule": "Cc1ccc(N2CCN(Cc3cc(C(=O)N[C@H]4CCCC[C@@H]4O)c(=O)n4ccccc34)CC2)nc1", "Papp": "23 ×10⁻⁶ cm/s"}
{"Molecule": "N#CC1(c2ccccn2)CCN(Cc2cc(C(=O)NC3CCOCC3)c(=O)n3ccccc23)CC1", "Papp": "33 ×10⁻⁶ cm/s"}
{"Molecule": "N#CC1(c2ccccn2)CCN(Cc2cc(C(=O)O)c(=O)n3ccccc23)CC1 [MSD-M1PAM]", "Papp": "18 ×10⁻⁶ cm/s"}
{"Molecule": "N#Cc1ccc(N2CCN(Cc3cc(C(=O)N[C@H]4CCCC[C@@H]4O)c(=O)n4ccccc34)CC2)cc1", "Papp": "30 ×10⁻⁶ cm/s"}
{"Molecule": "N#CC1(c2ccccc2)CCN(Cc2cc(C(=O)N[C@H]3CCCC[C@@H]3O)c(=O)n3ccccc23)CC1", "Papp": "32 ×10⁻⁶ cm/s"}
{"Molecule": "O=C(N[C@H]1CCCC[C@@H]1O)c1cc(CN2CCN(c3cc4scnc4cn3)CC2)c2ccccn2c1=O", "Papp": "37 ×10⁻⁶ cm/s"}
{"Molecule": "N#CC1(c2ccccn2)CCN(Cc2cc(C(=O)N[C@H]3CCCC[C@@H]3O)c(=O)n3ccccc23)CC1", "Papp": "29 ×10⁻⁶ cm/s"}

====

assay: Fraction unbound in human plasma; type: ADME, cell-free

{"Smiles Notation": "N#CC1(c2ccccn2)CCN(Cc2cc(C(=O)NC3CCOCC3)c(=O)n3ccccc23)CC1", "fraction unbound": 0.49}
